Quick list: Imp (impedance), % change from baseline per entry.
System: hiPSC-CMs (iCell-Cardiomyocytes^2)
EXPERIMENT_SUMMARY: MEA impedance (cytotoxicity readout) in hiPSC-CMs
REPORTED_CONDITIONS: 1 µM, 72h
REPORTED_PROPERTY: Imp (impedance), % change from baseline (%)

* CC1(C)S[C@@H]2[C@H](NC(=O)[C@H](N)c3ccc(O)cc3)C(=O)N2[C@H]1C(=O)O [Amoxicillin] | 4
* Cc1cn(-c2cc(NC(=O)c3ccc(C)c(Nc4nccc(-c5cccnc5)n4)c3)cc(C(F)(F)F)c2)cn1 [Nilotinib] | 2
* CCN(CC)CCNC(=O)c1c(C)[nH]c(/C=C2\C(=O)Nc3ccc(F)cc32)c1C [Sunitinib] | -8
* C#Cc1cccc(Nc2ncnc3cc(OCCOC)c(OCCOC)cc23)c1 [Erlotinib] | -3
* O=C(O)COCCN1CCN(C(c2ccccc2)c2ccc(Cl)cc2)CC1 (centres unmarked) [Cetirizine] | -5
* COc1cccc2c1C(=O)c1c(O)c3c(c(O)c1C2=O)C[C@@](O)(C(=O)CO)C[C@@H]3O[C@H]1C[C@H](N)[C@H](O)[C@H](C)O1 [Doxorubicin] | -89
* N=C(N)c1ccc(OCCCCCOc2ccc(C(=N)N)cc2)cc1 [Pentamidine] | -13
* COc1nc(N)nc2c1ncn2[C@@H]1O[C@H](COP(=O)(N[C@@H](C)C(=O)OCC(C)(C)C)Oc2cccc3ccccc23)[C@@H](O)[C@@]1(C)O (some centres unmarked) [BMS-986094] | -16

###

Tested on: hiPSC-CMs (iCell-Cardiomyocytes^2)
REPORTED_CONDITIONS: 3 µM; 24h
Quick list: Cessation of beating, number of observations/total well numbers per entry.
REPORTED_PROPERTY: Cessation of beating, number of observations/total well numbers

- COc1cccc2c1C(=O)c1c(O)c3c(c(O)c1C2=O)C[C@@](O)(C(=O)CO)C[C@@H]3O[C@H]1C[C@H](N)[C@H](O)[C@H](C)O1 [Doxorubicin]: 1/5
- COc1nc(N)nc2c1ncn2[C@@H]1O[C@H](COP(=O)(N[C@@H](C)C(=O)OCC(C)(C)C)Oc2cccc3ccccc23)[C@@H](O)[C@@]1(C)O (stereo partly drawn) [BMS-986094]: 0/5
- COc1cc2c(Nc3ccc(Br)cc3F)ncnc2cc1OCC1CCN(C)CC1 [Vandetanib]: 3/5
- C#Cc1cccc(Nc2ncnc3cc(OCCOC)c(OCCOC)cc23)c1 [Erlotinib]: 0/5
- N=C(N)c1ccc(OCCCCCOc2ccc(C(=N)N)cc2)cc1 [Pentamidine]: 0/6
- CC(C)(Sc1cc(C(C)(C)C)c(O)c(C(C)(C)C)c1)Sc1cc(C(C)(C)C)c(O)c(C(C)(C)C)c1 [Probucol]: 0/5

###

Quick list: Imp (impedance), % change from baseline per entry.
System: hiPSC-CMs (iCell-Cardiomyocytes^2)
EXPERIMENT_SUMMARY: MEA impedance (cytotoxicity readout) in hiPSC-CMs
REPORTED_CONDITIONS: 0.1 µM, 96h
REPORTED_PROPERTY: Imp (impedance), % change from baseline (%)

- CCN(CC)CCNC(=O)c1c(C)[nH]c(/C=C2\C(=O)Nc3ccc(F)cc32)c1C [Sunitinib]: -2
- COc1cccc2c1C(=O)c1c(O)c3c(c(O)c1C2=O)C[C@@](O)(C(=O)CO)C[C@@H]3O[C@H]1C[C@H](N)[C@H](O)[C@H](C)O1 [Doxorubicin]: -30
- Cc1cn(-c2cc(NC(=O)c3ccc(C)c(Nc4nccc(-c5cccnc5)n4)c3)cc(C(F)(F)F)c2)cn1 [Nilotinib]: -1
- O=C(O)COCCN1CCN(C(c2ccccc2)c2ccc(Cl)cc2)CC1 (stereo not drawn) [Cetirizine]: -7
- N=C(N)c1ccc(OCCCCCOc2ccc(C(=N)N)cc2)cc1 [Pentamidine]: 1
- COc1cc2c(Nc3ccc(Br)cc3F)ncnc2cc1OCC1CCN(C)CC1 [Vandetanib]: -6
